- measurement.notes: Water solubility of the compound
- Format: ADME
- measurement.conditions: buffer
Rule: S below 20 Dilution factor gives true. Equal to or above 20 Dilution factor gives false.

Incoming: Lab note: confirm whether the reported S for this compound is below 20 Dilution factor, equality not counting. compound: "C=C(C)[C@@H]1CC[C@]2(C(=O)N[C@@H](CC(C)C)C(=O)OC)CC[C@]3(C)[C@H](CC[C@@H]4[C@@]5(C)CC[C@H](O)C(C)(C)[C@@H]5CC[C@]43C)[C@@H]12"
Outgoing: true

Incoming: Lab note: confirm whether the reported S for this compound is below 20 Dilution factor, equality not counting. compound: "C=C(C)[C@@H]1CC[C@]2(C(=O)N[C@H](C(=O)OC)C(C)C)CC[C@]3(C)[C@H](CC[C@@H]4[C@@]5(C)CC[C@H](O)C(C)(C)[C@@H]5CC[C@]43C)[C@@H]12"
Outgoing: true

Incoming: Lab note: confirm whether the reported S for this compound is below 20 Dilution factor, equality not counting. compound: "C=C(C)[C@@H]1CC[C@]2(C(=O)N[C@@H](C)C(=O)OC)CC[C@]3(C)[C@H](CC[C@@H]4[C@@]5(C)CC[C@H](O)C(C)(C)[C@@H]5CC[C@]43C)[C@@H]12"
Outgoing: false

Incoming: Lab note: confirm whether the reported S for this compound is below 20 Dilution factor, equality not counting. compound: "C=C(C)[C@@H]1CC[C@]2(C(=O)N[C@@H](C)C(=O)O)CC[C@]3(C)[C@H](CC[C@@H]4[C@@]5(C)CC[C@H](O)C(C)(C)[C@@H]5CC[C@]43C)[C@@H]12"
Outgoing: false

Incoming: Lab note: confirm whether the reported S for this compound is below 20 Dilution factor, equality not counting. compound: "C=C(C)[C@@H]1CC[C@]2(C(=O)NCC(=O)O)CC[C@]3(C)[C@H](CC[C@@H]4[C@@]5(C)CC[C@H](O)C(C)(C)[C@@H]5CC[C@]43C)[C@@H]12"
Outgoing: false

Incoming: Lab note: confirm whether the reported S for this compound is below 20 Dilution factor, equality not counting. compound: "C=C(C)[C@@H]1CC[C@]2(C(=O)N[C@@H](CCSC)C(=O)OC)CC[C@]3(C)[C@H](CC[C@@H]4[C@@]5(C)CC[C@H](O)C(C)(C)[C@@H]5CC[C@]43C)[C@@H]12"
Outgoing: true

Incoming: Lab note: confirm whether the reported S for this compound is below 20 Dilution factor, equality not counting. compound: "C=C(C)[C@@H]1CC[C@]2(C(=O)N[C@@H](Cc3c[nH]c4ccccc34)C(=O)O)CC[C@]3(C)[C@H](CC[C@@H]4[C@@]5(C)CC[C@H](O)C(C)(C)[C@@H]5CC[C@]43C)[C@@H]12"
Outgoing: true

Incoming: Lab note: confirm whether the reported S for this compound is below 20 Dilution factor, equality not counting. compound: "C=C(C)[C@@H]1CC[C@]2(C(=O)N[C@@H](CC(C)C)C(=O)O)CC[C@]3(C)[C@H](CC[C@@H]4[C@@]5(C)CC[C@H](O)C(C)(C)[C@@H]5CC[C@]43C)[C@@H]12"
Outgoing: true
